The reported numbers originate from PubChem BioAssay (NCI).

Test Name: NCI Yeast Anticancer Drug Screen. Data for the rad50 strain (AID 155);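 further: 0% = growth of vehicle-only cultures of the same strain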
Measurement Setup: S. cerevisiae rad50 strain growth inhibition; at 50.0 µM (retest, dose inferred, filed as 5.0)
The panel holds about 79,000 compounds, 15% with a hit somewhere; the sample as a whole holds those more often. Active and inactive are the calls of the source. No stated cut-off is given here; in the data, active means growth inhibition above about 70%; inactive means the rest.
The categories you may choose from are active, inactive

## Input Check the results log: what was the call for COc1ccc(C(C)=O)c(OC(=O)c2ccccc2)c1OC(=O)c1ccccc1 ?
## Output inactive

## Input Given C/C=C/CSc1cc(NC(=S)c2ccsc2C)ccc1Cl , state the outcome it received in this test.
## Output active

## Input So what was the verdict on Cc1cc(N2C(=O)CCSC2=S)ccc1Cl in this test?
## Output inactive

## Input Check the results log: what was the call for CCCCCCCC[N+](C)(CCCCCCCC)CCCCCCCC ?
## Output active

## Input Record request — test call for CCc1nc2ccc(N=NN(C)C)cc2[nH]1
## Output active

## Input Which result was noted for this compound in the test: O=c1cc(CSc2ccc(Cl)cc2)occ1O
## Output inactive

## Input What outcome does the record of this test show for O=C1c2ccccc2C(=O)N1/N=C\c1ccccc1[N+](=O)[O-] ?
## Output active

## Input Per the records of this test, what outcome belongs to CC(=O)OCCn1c2nc(=O)[nH]c(=O)c-2nc2cc(C)c(C)cc21 ?
## Output inactive

## Input Status in this test for CN(C)C=Nc1ccc2nonc2c1 ?
## Output inactive

## Input Per the assay record, what outcome was assigned to CCc1scc(C)[n+]1CC(=O)c1cccc([N+](=O)[O-])c1 ?
## Output inactive

## Input Please state the recorded outcome for this compound: CCCCCCCCN(CCCCCCCC)CC(O)c1cc(OCC)nc2ccccc12 (configuration not stated)
## Output active

## Input Record request — test call for Nc1nc(N)c2nc(Sc3ccc(F)cc3)c(N)nc2n1
## Output inactive

----------
Test Name: NCI Yeast Anticancer Drug Screen. Data for the rad50 strain (AID 155);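 further: 0% = growth of vehicle-only cultures of the same strain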
Measurement Setup: S. cerevisiae rad50 strain growth inhibition; at 50.0 µM; stronger effect = higher value
Compounds without any hit were thinned out: in the full panel of roughly 79,000, 15% have a hit.
Reported Endpoint: growth inhibition (%)
Value expressed in %; do not type the unit.

Entry CC(=O)O/N=C1/CCC2C3CC=C4CC(OC(C)=O)CCC4(C)C3CCC12C (configuration not stated) ; growth inhibition = 68.8

Value of growth inhibition reported for the molecule N#C/C(=C\c1cc(Cl)cc(Cl)c1O)C(/C(C#N)=C/c1cc(Cl)cc(Cl)c1O)c1ccc2c(c1)OCO2 (configuration not stated) is 90.8

Kindly note the recorded growth inhibition for COC1/C=C\OC2(C)Oc3c(C)c(O)c4c(O)c(c5[nH]c(-c6ccccc6)nc5c4c3C2=O)NC(=O)/C(C)=C\C=C\C(C)C(O)C(C)C(O)C(C)C(OC(C)=O)C1C (configuration not stated) , which is 88.5

Reported growth inhibition of C=CCCCCCCCCC(=O)CCCCCCCCC=C : 7.6

Looking up O=c1c(SSc2coc3ccccc3c2=O)coc2ccccc12 , I found its growth inhibition recorded as 94.4

growth inhibition for Cc1ccc(/C=C/C(=O)/C=C/c2ccc(C)o2)o1 is 65.8

Sample CCCCCCCCCCCCS(=O)(=O)CC(Br)C(=O)c1ccco1 (configuration not stated) ; growth inhibition observed: 94.2

Input ClCc1ccc(OCc2ccccc2)c(OCc2ccccc2)c1 . Output growth inhibition: 79

growth inhibition reading for COc1cc(/C=C/C(=O)Sc2ccccc2)cc(OC)c1O : 74.7

Entry Clc1ccc2nc3ccccc3nc2c1 ; growth inhibition = 94.7

# growth inhibition (molecule: CCOc1ccccc1/C=N/Nc1nnc(N/N=C/c2ccccc2OCC)c2ccccc12 ) is 44

Measured growth inhibition, C=C(Br)CN(CC(=C)Br)C(C)=O : -11.7

molecule Cc1ccc(C2(O)CCN(Cc3ccccc3)CC2)cc1 , growth inhibition observed: 56.5

Entry N#C/C(=C1C=C/C(=N/O)c2ccccc2/1)c1ccc(Cl)cc1 ; growth inhibition = 56

Data point: COc1cccc2c1C(=O)c1c(O)c3c(c(O)c1C2=O)CC(O)(C(=O)CO)CC3OC1CC(N)C(I)C(C)O1 (configuration not stated) ; growth inhibition = 89.5

Notebook: Nc1nnc(Cc2ccc(Br)cc2)o1 , growth inhibition read as 21.3

Query COC(=O)c1nnn(-c2ccc(S(N)(=O)=O)cc2)c1C(=O)c1ccc(Cl)c(Cl)c1 yields growth inhibition of 98.5

Looking up CSC(=S)N/N=C\C(C)=N/N=C(N)N , I see its growth inhibition listed as 94

Measured growth inhibition of C/C(=N\NC(=S)N1CCN(c2ccccc2)CC1)c1nccs1 : 90.5

Measured growth inhibition, CC(=O)N(C(C)=O)C1=C2c3ccccc3N(S(=O)(=O)c3ccccc3)C2n2c(=O)n(-c3ccccc3)c(=O)n2C1 (configuration not stated) : 69.9

// growth inhibition value for COc1ccc2ccccc2c1-c1c(O)ccc2ccccc12 : 93.5

So for O=C(O)C(O)C(O)C(O)C(O)CO.[Ag] (configuration not stated) , the logged growth inhibition turned out to be 99.2
